METHOD_NOTES: MTT viability assay
Type: cell-based, human
EXPERIMENTAL_PARAMETERS: human, HEK293T cells; HEK293T, 20 μM, 16 h; read-out: Cell viability (MTT)
Where a name gives a salt, the structure may show the parent alone.
Let's look at some compounds and their measured viability at 16 h, 20 µM.
Reply numerically in %, unit not repeated.

Take a look at these entries with their results.
> print(dat)
                                   compound  result
1  COc1cc(/C=C/C(=O)N2CCN(S(=O)(=O)c3cccc4cnccc34)CC2)ccc1O [Compound 1e]    60.5
2  O=C(/C=C/c1ccc(O)c(O)c1)N1CCN(S(=O)(=O)c2cccc3cnccc23)CC1 [Compound 1a]    90.9
3  COc1cc(CCC(=O)N2CCCN(S(=O)(=O)c3cccc4cnccc34)CC2)ccc1O [Compound 1h]    99.4
4  COc1cc(CCC(=O)N2CCN(S(=O)(=O)c3cccc4cnccc34)CC2)ccc1O [Compound 1g]    93.7
5  O=C(CCc1ccc(O)c(O)c1)N1CCCN(S(=O)(=O)c2cccc3cnccc23)CC1 [Compound 1d]     100

viability at 16 h, 20 µM recorded for this compound, O=S(=O)(c1cccc2cnccc12)N1CCCNCC1 [fasudil, reference compound] , is 92.1

Summary for this compound, COc1cc(/C=C/C(=O)N2CCCN(S(=O)(=O)c3cccc4cnccc34)CC2)ccc1O [Compound 1f] : viability at 16 h, 20 µM is 93.9

Reported viability at 16 h, 20 µM for O=C(/C=C/c1ccc(O)c(O)c1)N1CCCN(S(=O)(=O)c2cccc3cnccc23)CC1 [Compound 1b] was 96.9

Record summary for COC(=O)/C=C/C(=O)OC [DMF, dimethyl fumarate, reference compound] : reported viability at 16 h, 20 µM = 90.4

For record O=C(CCc1ccc(O)c(O)c1)N1CCN(S(=O)(=O)c2cccc3cnccc23)CC1 [Compound 1c] the listed viability at 16 h, 20 µM is 104

----------
Item-by-item account of fold induction at 60 µM
Tested on: NRF2
METHOD_NOTES: 3×ARE-LUC luciferase reporter assay
Assay type: cell-based, human
EXPERIMENTAL_PARAMETERS: Homo sapiens, HEK-293T; 60 µM, HEK293T, 16 h; read-out: Luciferase assay response
Reply with just the number.

Example entries begin here.
> print(dat)
                                   compound           property.label  result
1  O=C(/C=C/c1ccc(O)c(O)c1)N1CCCN(S(=O)(=O)c2cccc3cnccc23)CC1  fold induction at 60 µM     4.1
2  COc1cc(CCC(=O)N2CCN(S(=O)(=O)c3cccc4cnccc34)CC2)ccc1O  fold induction at 60 µM     1.5
3  COc1cc(/C=C/C(=O)N2CCCN(S(=O)(=O)c3cccc4cnccc34)CC2)ccc1O  fold induction at 60 µM     1.2
4  COc1cc(CCC(=O)N2CCCN(S(=O)(=O)c3cccc4cnccc34)CC2)ccc1O  fold induction at 60 µM     1.2
5  O=C(/C=C/c1ccc(O)c(O)c1)N1CCN(S(=O)(=O)c2cccc3cnccc23)CC1  fold induction at 60 µM     1.2

Query O=S(=O)(c1cccc2cnccc12)N1CCCNCC1 [fasudil, reference compound] yields fold induction at 60 µM of 2.9

What the record says about `COc1cc(/C=C/C(=O)N2CCN(S(=O)(=O)c3cccc4cnccc34)CC2)ccc1O` : fold induction at 60 µM is 1.2

Per the record, `O=C(CCc1ccc(O)c(O)c1)N1CCCN(S(=O)(=O)c2cccc3cnccc23)CC1` has fold induction at 60 µM of 13.6
